assayed-system: F508delCFTR (Homo sapiens, UniProt P13569, DEL508-508)
Construct: expressed in transfected cells; host or cells: CFBE41o- human lung-derived epithelial cells (CFBE4lo-F508delCFTR-HRP), doxycycline-inducible
Sequence (P13569 with tags, fused parts or gaps DEL508-508): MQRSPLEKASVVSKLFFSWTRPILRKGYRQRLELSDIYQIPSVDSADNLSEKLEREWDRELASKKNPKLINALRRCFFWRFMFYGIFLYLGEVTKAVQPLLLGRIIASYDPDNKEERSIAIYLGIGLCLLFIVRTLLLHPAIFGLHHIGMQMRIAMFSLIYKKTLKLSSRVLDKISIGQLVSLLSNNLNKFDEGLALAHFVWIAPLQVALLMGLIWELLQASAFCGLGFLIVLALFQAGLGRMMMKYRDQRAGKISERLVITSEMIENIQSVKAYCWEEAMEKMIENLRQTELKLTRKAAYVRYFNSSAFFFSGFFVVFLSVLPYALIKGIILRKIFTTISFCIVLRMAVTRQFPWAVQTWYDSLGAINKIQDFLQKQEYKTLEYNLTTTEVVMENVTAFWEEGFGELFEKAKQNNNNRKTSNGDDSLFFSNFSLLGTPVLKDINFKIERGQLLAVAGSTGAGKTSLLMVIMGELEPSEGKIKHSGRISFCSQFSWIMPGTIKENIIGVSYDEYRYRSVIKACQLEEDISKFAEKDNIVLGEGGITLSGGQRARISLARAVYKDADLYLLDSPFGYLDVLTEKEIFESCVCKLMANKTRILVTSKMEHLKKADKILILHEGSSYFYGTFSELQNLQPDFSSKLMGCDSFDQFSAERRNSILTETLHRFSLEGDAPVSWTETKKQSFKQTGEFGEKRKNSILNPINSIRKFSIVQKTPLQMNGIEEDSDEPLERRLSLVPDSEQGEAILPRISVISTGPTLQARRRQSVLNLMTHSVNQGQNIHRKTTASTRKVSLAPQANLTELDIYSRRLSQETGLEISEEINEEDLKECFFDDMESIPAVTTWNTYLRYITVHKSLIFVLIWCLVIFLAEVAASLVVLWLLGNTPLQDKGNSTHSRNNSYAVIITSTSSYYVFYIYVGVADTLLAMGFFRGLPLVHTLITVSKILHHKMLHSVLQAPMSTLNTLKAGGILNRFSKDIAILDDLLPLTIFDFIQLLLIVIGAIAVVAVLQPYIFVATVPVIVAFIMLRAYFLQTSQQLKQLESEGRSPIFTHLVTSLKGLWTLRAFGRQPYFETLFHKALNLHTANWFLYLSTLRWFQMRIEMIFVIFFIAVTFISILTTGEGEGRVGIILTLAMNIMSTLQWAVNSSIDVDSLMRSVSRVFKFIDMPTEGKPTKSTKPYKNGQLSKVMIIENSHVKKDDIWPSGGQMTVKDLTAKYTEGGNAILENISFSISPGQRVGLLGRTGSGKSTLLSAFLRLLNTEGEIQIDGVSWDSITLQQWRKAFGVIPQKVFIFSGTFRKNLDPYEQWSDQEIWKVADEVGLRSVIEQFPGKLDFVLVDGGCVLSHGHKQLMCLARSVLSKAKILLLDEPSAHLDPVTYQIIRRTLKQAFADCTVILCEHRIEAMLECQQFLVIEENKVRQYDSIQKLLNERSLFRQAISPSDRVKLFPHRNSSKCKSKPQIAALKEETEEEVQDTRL
method-summary: Cell Surface Expression-Horse Radish Peroxidase (CSE-HRP) Assay;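 further: percent of the 2 µM on-plate positive control corrector response above DMSO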
Format: cell-based
recorded-conditions: test compound without co-corrector; maximum at any tested concentration, normalized to on-plate positive control; read-out: Maximum % activity (without co-corrector)
Provide the recorded Emax for the entries that follow.

Record COc1ccc(CN[C@@H]2[C@@H](C(C)(C)C)[C@H](C(=O)O)N(C(=O)C3CCCCC3)[C@@H]2c2ccccc2)c(OC)c1Cl (racemic) , field Emax: < 100%

Reported Emax ( COc1cc(CN[C@H]2[C@H](C(C)(C)C)[C@@H](C(=O)O)N(C(=O)C3CCCCC3)[C@H]2c2ccccc2)cc(OC)c1 ) = < 100%

Looking up COc1cc(C(F)(F)F)ccc1CN[C@H]1[C@H](C(C)(C)C)[C@@H](C(=O)O)N(C(=O)OC(C)C)[C@H]1c1ccccc1 , I found its Emax recorded as > 200%

Entry under test: COCCOc1cnc(Cl)cc1CN[C@@H]1[C@@H](C(C)(C)C)[C@H](C(=O)O)N(C(=O)C2CCCCC2)[C@@H]1c1ccccc1 (racemic) . Its Emax was < 100%

Noted for COc1ccc(C(F)(F)F)cc1CN[C@H]1[C@H](C(C)(C)C)[C@@H](C(=O)O)N(C(=O)C2(S(C)(=O)=O)CC2)[C@H]1c1ccccc1 : its Emax reads < 100%

Consider COc1cc(C(F)(F)F)ccc1CN[C@H]1[C@H](C(C)(C)C)[C@@H](C(=O)O)N(C(=O)OC(C)C)[C@H]1c1cccnc1OC . Its measured Emax is 100 to 200%

Record COc1ncc(C(F)(F)F)cc1CN[C@H]1[C@H](C(C)(C)C)[C@@H](C(=O)O)N(C(=O)[C@@H]2CCCO2)[C@H]1c1cccnc1C1CC1 . Reported Emax: < 100%

The recorded Emax for entry COc1nc(C(C)(C)C)ccc1CN[C@H]1[C@H](C(C)(C)C)[C@@H](C(=O)O)N(C(=O)C2CCC(C)(C)C2)[C@H]1c1ccccc1 (some centres unmarked) equals 100 to 200%

Record CC(C)(C)[C@@H]1[C@@H](Nc2cc(C(F)(F)F)ccn2)[C@@H](c2ccccc2)N(C(=O)C2CCCCC2)[C@H]1C(=O)O (racemic) . Reported Emax: < 100%

Sure, the documented Emax for COc1ccc(C(C)(C)C)cc1CN[C@H]1[C@H](C(C)(C)C)[C@@H](C(=O)O)N(C(=O)[C@H]2C[C@@H]3CC[C@H]2O3)[C@H]1c1ccccc1 is > 200%

Given item COc1ncc(C(F)(F)F)cc1CN[C@H]1[C@H](C(C)(C)C)[C@@H](C(=O)O)N(C(=O)C2CCOCC2)[C@H]1c1ccccc1C(C)C , the value recorded as its Emax is > 200%

Entry under test: CC(C)(C)[C@H]1[C@H](Nc2ccc(Cn3ccccc3=O)cn2)[C@H](c2ccccc2)N(C(=O)C2CCCCC2)[C@@H]1C(=O)O . Its Emax was < 100%

Note to self: Emax recorded for Cc1cc(C(F)(F)F)cc(N[C@@H]2[C@@H](C(C)(C)C)[C@H](C(=O)O)N(C(=O)C3CCC(F)(F)CC3)[C@@H]2c2ccccc2)n1 (racemic) was < 100%

Reported Emax of CC(C)(C)[C@H]1[C@H](NCc2ccc3occc3c2)[C@H](c2ccccc2)N(C(=O)C2CCCCC2)[C@@H]1C(=O)O : < 100%

Consider COc1ncc(C2(C)CC2)cc1CN[C@H]1[C@H](C(C)(C)C)[C@@H](C(=O)O)N(C(=O)C2CCCCC2)[C@H]1c1ccccc1 . Its measured Emax is 100 to 200%

Emax reported for this compound COc1ccc(C(C)(C)C)cc1CN[C@H]1[C@H](C(C)(C)C)[C@@H](C(=O)O)N(C(=O)C2=C(F)CCCC2)[C@H]1c1ccccc1 : > 200%

Quick note, Emax for COc1ncc(C(F)(F)F)cc1CN[C@H]1[C@H](C(C)(C)C)[C@@H](C(=O)O)N(C(=O)C2Cc3cccc(C)c3O2)[C@H]1c1ccccc1 (some centres unmarked) landed at < 100%
